src = patent US12448358B2

Molecular target: PAD4 (Homo sapiens, UniProt Q9UM07)
Construct: made in house
Sequence (Q9UM07 whole entry): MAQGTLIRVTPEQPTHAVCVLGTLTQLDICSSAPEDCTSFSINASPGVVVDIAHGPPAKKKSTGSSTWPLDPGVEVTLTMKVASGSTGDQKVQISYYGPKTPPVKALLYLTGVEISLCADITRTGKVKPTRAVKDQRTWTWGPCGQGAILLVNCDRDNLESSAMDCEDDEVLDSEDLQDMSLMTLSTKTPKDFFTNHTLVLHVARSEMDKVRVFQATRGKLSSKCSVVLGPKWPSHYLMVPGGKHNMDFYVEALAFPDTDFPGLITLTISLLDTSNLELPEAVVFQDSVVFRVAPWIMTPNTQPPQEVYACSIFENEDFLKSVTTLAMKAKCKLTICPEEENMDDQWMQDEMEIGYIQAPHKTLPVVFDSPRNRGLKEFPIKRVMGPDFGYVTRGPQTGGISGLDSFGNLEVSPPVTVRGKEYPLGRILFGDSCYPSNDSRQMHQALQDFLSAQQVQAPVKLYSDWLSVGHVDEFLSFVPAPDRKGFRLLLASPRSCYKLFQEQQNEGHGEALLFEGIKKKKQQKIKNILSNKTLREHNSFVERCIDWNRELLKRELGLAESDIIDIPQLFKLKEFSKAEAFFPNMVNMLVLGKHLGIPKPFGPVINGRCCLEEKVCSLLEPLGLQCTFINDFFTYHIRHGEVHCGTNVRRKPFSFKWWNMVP
Experiment: Inactivation kinetics of PAD4 (COLDER citrulline assay)
Assay type: biochemical
Details: marks: * nonlinear fit of kobs versus [I], ‡ linear fit, † single kobs
MEASURE: kinact/KI

Check out these entries, answers already filled in.
N=C(CCl)NCCC[C@H](NC(=O)c1cc(I)ccc1O)c1nc2ccccc2[nH]1 [Compound 16]	3600 ± 70^‡ M^−1min^−1
N=C(CCl)NCCC[C@H](NC(=O)c1cc(Cl)cc(Cl)c1O)c1nc2ccccc2[nH]1 [Compound 14]	2600 ± 70^‡ M^−1min^−1
N=C(CCl)NCCC[C@H](NC(=O)c1cccc(I)c1O)c1nc2ccccc2[nH]1 [Compound 18]	3160 ± 550^† M^−1min^−1
C#Cc1c(I)cc(C(=O)N[C@@H](CCCNC(=N)CF)c2nc3ccccc3[nH]2)c(O)c1I [Compound 21]	220 ± 30^† M^−1min^−1
C#Cc1c(I)cc(C(=O)N[C@@H](CCCNC(=N)CCl)c2nc3ccccc3[nH]2)c(O)c1I [Compound 22]	25000 ± 1370* M^−1min^−1
CC(C)c1cc(C(=O)N[C@@H](CCCNC(=N)CF)c2nc3ccccc3[nH]2)c(O)c(C(C)C)c1 [Compound 9]	240 ± 20^† M^−1min^−1

Now take the following molecule into account.
kinact/KI recorded for this molecule, N=C(CF)NCCC[C@H](NC(=O)c1cccc(I)c1O)c1nc2ccccc2[nH]1 [Compound 17] , is 180 ± 20^† M^−1min^−1
